FYI, the data here is from PubChem BioAssay AID1963838.

- System: 855422-203-R-J1-PDC complex spheroid viability
- Experimental details: Anticancer human tumor 855422-203-R-J1-PDC patient-derived bladder carcinoma cell line growth inhibition [POLQ]
- Experimental parameters: second compound 10 µM; first compound 0.001 µM; hits give low values
Reported metric: viability, T/C (%)
State just the number; it will be interpreted in %.

Reported viability, T/C of CC[C@@]1(O)C(=O)OCc2c1cc1n(c2=O)Cc2cc3c(CN(C)C)c(O)ccc3nc2-1 + COC1C(OC(N)=O)C(O)C(Oc2ccc3c(O)c(NC(=O)c4ccc(O)c(CC=C(C)C)c4)c(=O)oc3c2C)OC1(C)C : 107

The reported viability, T/C of the molecule Cn1ncnc1[C@H]1c2n[nH]c(=O)c3cc(F)cc(c23)N[C@@H]1c1ccc(F)cc1 + COC1C(OC(N)=O)C(O)C(Oc2ccc3c(O)c(NC(=O)c4ccc(O)c(CC=C(C)C)c4)c(=O)oc3c2C)OC1(C)C was 97.2

viability, T/C measured on CC[C@@]1(O)C(=O)OCc2c1cc1n(c2=O)Cc2cc3c(CN(C)C)c(O)ccc3nc2-1 + Cc1cccc(N(C)C(=O)C2C(O)CCN2c2nc(C)cc(C(F)(F)F)c2C#N)c1 = 97.7

According to the records, this molecule Cn1ncnc1[C@H]1c2n[nH]c(=O)c3cc(F)cc(c23)N[C@@H]1c1ccc(F)cc1 + Cc1cccc(N(C)C(=O)C2C(O)CCN2c2nc(C)cc(C(F)(F)F)c2C#N)c1 displays viability, T/C of 103

The recorded viability, T/C for entry CC[C@@]1(O)C(=O)OCc2c1cc1n(c2=O)Cc2cc3c(CN(C)C)c(O)ccc3nc2-1 + Nc1ccc(C#CCN(C(=O)Cc2ncc(C(F)(F)F)cc2C(F)(F)F)c2ccc(F)cc2)nn1 equals 93.7

For this molecule ( Cn1ncnc1[C@H]1c2n[nH]c(=O)c3cc(F)cc(c23)N[C@@H]1c1ccc(F)cc1 + Nc1ccc(C#CCN(C(=O)Cc2ncc(C(F)(F)F)cc2C(F)(F)F)c2ccc(F)cc2)nn1 ), measured viability, T/C is 110

====

- System: 855422-203-R-J1-PDC complex spheroid viability
- Experimental details: Anticancer human tumor 855422-203-R-J1-PDC cell line growth inhibition [POLQ];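 further: spheroids exposed to compounds for seven days before readout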
- Experimental parameters: second compound 1 µM; first compound 3.16 µM; hits give low values
- Description: Multicellular complex tumor spheroid response to Polymerase (POL) inhibitors (novobiocin, ART-558, RP6685) in combination with a variety of drugs and investigational agents in selected tumor cell lines The POL inhibitors (novobiocin, ART-558, and RP6685) were evaluated both individually and in combination with standard of care and investigational anticancer small molecules within a complex spheroid model of solid tumors. . […]
Reported metric: viability, T/C

The molecule identified as COc1cccc2c1C(=O)c1c(O)c3c(c(O)c1C2=O)CC(O)(C(=O)CO)CC3OC1CC(N)C(O)C(C)O1 (stereo not drawn) + Nc1ccc(C#CCN(C(=O)Cc2ncc(C(F)(F)F)cc2C(F)(F)F)c2ccc(F)cc2)nn1 registered its viability, T/C at 1.13%

Item: CCc1cc2c(N3CCc4c(cc(Cn5ccnc5)cc4-c4cn(C)nc4C(F)(F)F)C3=O)ccnc2c(OC)n1 + COC1C(OC(N)=O)C(O)C(Oc2ccc3c(O)c(NC(=O)c4ccc(O)c(CC=C(C)C)c4)c(=O)oc3c2C)OC1(C)C | viability, T/C: 46.6%

So for CNCc1ccc(-c2[nH]c3cc(F)cc4c3c2CCNC4=O)cc1 + COC1C(OC(N)=O)C(O)C(Oc2ccc3c(O)c(NC(=O)c4ccc(O)c(CC=C(C)C)c4)c(=O)oc3c2C)OC1(C)C , the logged viability, T/C turned out to be 117%

====

Record form. Attribute: viability, T/C. Fill in for each entry.
- Tested on: 855422-203-R-J1-PDC complex spheroid viability
- Experimental details: Anticancer human tumor 855422-203-R-J1-PDC cell line growth inhibition [POLQ];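 further: spheroids exposed to compounds for seven days before readout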
- Experimental parameters: second compound 3.16 µM; first compound 0.1 µM; hits give low values
- Procedure: Multicellular complex tumor spheroid response to Polymerase (POL) inhibitors (novobiocin, ART-558, RP6685) in combination with a variety of drugs and investigational agents in selected tumor cell lines The POL inhibitors (novobiocin, ART-558, and RP6685) were evaluated both individually and in combination with standard of care and investigational anticancer small molecules within a complex spheroid model of solid tumors. . […]
Write the value in % as a bare number.

The molecule listed as COc1cccc2c1C(=O)c1c(O)c3c(c(O)c1C2=O)CC(O)(C(=O)CO)CC3OC1CC(N)C(O)C(C)O1 (stereo unspecified) + Nc1ccc(C#CCN(C(=O)Cc2ncc(C(F)(F)F)cc2C(F)(F)F)c2ccc(F)cc2)nn1 has a reported viability, T/C of 12.7

Measured viability, T/C, Nc1ccn(C2OC(CO)C(O)C2(F)F)c(=O)n1 (stereo unspecified) + Cc1cccc(N(C)C(=O)C2C(O)CCN2c2nc(C)cc(C(F)(F)F)c2C#N)c1 : 39.4

// viability, T/C value for CCCS(=O)(=O)Nc1ccc(F)c(C(=O)c2c[nH]c3ncc(-c4ccc(Cl)cc4)cc23)c1F + Nc1ccc(C#CCN(C(=O)Cc2ncc(C(F)(F)F)cc2C(F)(F)F)c2ccc(F)cc2)nn1 : 108

Recorded viability, T/C (molecule O=c1[nH]cc(F)c(=O)[nH]1 + Nc1ccc(C#CCN(C(=O)Cc2ncc(C(F)(F)F)cc2C(F)(F)F)c2ccc(F)cc2)nn1 ): 107

# viability, T/C (molecule: CC[C@@]1(O)C(=O)OCc2c1cc1n(c2=O)Cc2cc3c(CN(C)C)c(O)ccc3nc2-1 + Nc1ccc(C#CCN(C(=O)Cc2ncc(C(F)(F)F)cc2C(F)(F)F)c2ccc(F)cc2)nn1 ) is 21.3

viability, T/C recorded for this molecule, CC1COCCN1c1cc(C2(O)CC3CCC(C2)O3)c2cnn(-c3ccn[nH]3)c2n1 (stereo unspecified) + Cc1cccc(N(C)C(=O)C2C(O)CCN2c2nc(C)cc(C(F)(F)F)c2C#N)c1 , is 45.8

// viability, T/C lookup, molecule = Cn1ncnc1[C@H]1c2n[nH]c(=O)c3cc(F)cc(c23)N[C@@H]1c1ccc(F)cc1 + COC1C(OC(N)=O)C(O)C(Oc2ccc3c(O)c(NC(=O)c4ccc(O)c(CC=C(C)C)c4)c(=O)oc3c2C)OC1(C)C , result: 102

The recorded viability, T/C for COc1cc(C2c3cc4c(cc3C(OC3OC5COC(C)OC5C(O)C3O)C3COC(=O)C23)OCO4)cc(OC)c1O (stereo unspecified) + COC1C(OC(N)=O)C(O)C(Oc2ccc3c(O)c(NC(=O)c4ccc(O)c(CC=C(C)C)c4)c(=O)oc3c2C)OC1(C)C is 85.9

# viability, T/C (molecule: CC(C)n1c(=O)n(C)c2cnc3cc(F)c(-c4ccc(OCCCN5CCCCC5)nc4)cc3c21 + Cc1cccc(N(C)C(=O)C2C(O)CCN2c2nc(C)cc(C(F)(F)F)c2C#N)c1 ) is 101

Given item CNCc1ccc(-c2[nH]c3cc(F)cc4c3c2CCNC4=O)cc1 + Cc1cccc(N(C)C(=O)C2C(O)CCN2c2nc(C)cc(C(F)(F)F)c2C#N)c1 , the value recorded as its viability, T/C is 108

Quick note, viability, T/C for CCc1c2c(nc3ccc(O)cc13)-c1cc3c(c(=O)n1C2)COC(=O)[C@]3(O)CC + Cc1cccc(N(C)C(=O)C2C(O)CCN2c2nc(C)cc(C(F)(F)F)c2C#N)c1 landed at 5.22

====

- Test system: 855422-203-R-J1-PDC complex spheroid viability
- Experimental details: Anticancer human tumor 855422-203-R-J1-PDC cell line growth inhibition [POLQ];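 further: spheroids exposed to compounds for seven days before readout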
- Experimental parameters: second compound 10 µM; first compound 0.0316 µM; hits give low values
Kindly supply the reported viability, T/C values for the records listed here.
Just the number please, in %, no unit attached.

Lookup result for COc1cccc2c1C(=O)c1c(O)c3c(c(O)c1C2=O)CC(O)(C(=O)CO)CC3OC1CC(N)C(O)C(C)O1 (stereo not given) + COC1C(OC(N)=O)C(O)C(Oc2ccc3c(O)c(NC(=O)c4ccc(O)c(CC=C(C)C)c4)c(=O)oc3c2C)OC1(C)C ; measured viability, T/C: 16.2

Consider COc1cc2cc(C(=O)CCC(=O)O)sc2cc1OC + Cc1cccc(N(C)C(=O)C2C(O)CCN2c2nc(C)cc(C(F)(F)F)c2C#N)c1 . Its measured viability, T/C is 108

Short answer for CC1COCCN1c1cc(C2(S(C)(=N)=O)CC2)nc(-c2ccnc3[nH]ccc23)n1 (stereo not given) + Cc1cccc(N(C)C(=O)C2C(O)CCN2c2nc(C)cc(C(F)(F)F)c2C#N)c1 : viability, T/C was 103

Lab note: measured viability, T/C of C#Cc1c(F)ccc2cc(O)cc(-c3ncc4c(N5CC6CCC(C5)N6)nc(OCC56CCCN5CC(F)C6)nc4c3F)c12 (stereo not given) + Nc1ccc(C#CCN(C(=O)Cc2ncc(C(F)(F)F)cc2C(F)(F)F)c2ccc(F)cc2)nn1 was 103

response.value for COc1cc(C2c3cc4c(cc3C(OC3OC5COC(C)OC5C(O)C3O)C3COC(=O)C23)OCO4)cc(OC)c1O (stereo not given) + Nc1ccc(C#CCN(C(=O)Cc2ncc(C(F)(F)F)cc2C(F)(F)F)c2ccc(F)cc2)nn1 (field: viability, T/C) = 105
